# Test target: Nitric oxide synthase, inducible (Homo sapiens)
# Sequence (P35228 whole entry): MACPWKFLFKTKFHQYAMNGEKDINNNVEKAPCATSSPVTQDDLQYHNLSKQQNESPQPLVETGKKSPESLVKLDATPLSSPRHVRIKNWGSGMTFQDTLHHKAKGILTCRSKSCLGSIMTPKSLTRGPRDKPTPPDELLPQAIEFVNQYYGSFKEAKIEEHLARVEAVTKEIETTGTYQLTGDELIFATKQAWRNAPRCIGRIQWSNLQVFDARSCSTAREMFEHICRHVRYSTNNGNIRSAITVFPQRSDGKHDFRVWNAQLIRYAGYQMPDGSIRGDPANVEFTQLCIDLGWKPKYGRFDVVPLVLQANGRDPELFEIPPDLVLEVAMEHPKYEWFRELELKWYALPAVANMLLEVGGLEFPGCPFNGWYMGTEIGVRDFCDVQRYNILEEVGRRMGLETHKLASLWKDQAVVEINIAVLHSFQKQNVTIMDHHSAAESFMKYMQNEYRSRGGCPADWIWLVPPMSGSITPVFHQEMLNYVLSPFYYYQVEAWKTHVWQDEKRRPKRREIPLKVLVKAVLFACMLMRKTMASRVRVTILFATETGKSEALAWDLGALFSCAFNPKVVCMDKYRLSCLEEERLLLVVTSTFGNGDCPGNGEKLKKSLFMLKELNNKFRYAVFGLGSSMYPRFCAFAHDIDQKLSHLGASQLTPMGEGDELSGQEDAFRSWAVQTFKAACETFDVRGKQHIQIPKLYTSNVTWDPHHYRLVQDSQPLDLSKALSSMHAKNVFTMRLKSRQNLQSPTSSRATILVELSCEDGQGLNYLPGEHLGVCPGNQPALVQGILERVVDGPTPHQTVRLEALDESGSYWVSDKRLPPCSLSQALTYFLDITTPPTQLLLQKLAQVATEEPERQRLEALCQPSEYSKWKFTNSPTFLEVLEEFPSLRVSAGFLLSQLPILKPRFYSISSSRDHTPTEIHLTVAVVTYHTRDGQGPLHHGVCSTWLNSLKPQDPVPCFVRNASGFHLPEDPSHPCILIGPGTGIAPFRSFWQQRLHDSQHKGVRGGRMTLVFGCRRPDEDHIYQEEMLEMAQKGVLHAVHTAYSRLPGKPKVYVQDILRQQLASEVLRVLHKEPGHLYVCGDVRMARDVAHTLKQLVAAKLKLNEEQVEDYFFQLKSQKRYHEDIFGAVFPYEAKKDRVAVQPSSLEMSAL
pIC50 overview
Quick note: pIC50 values are minus log10 of concentrations in mol/L.

Check out these entries, answers already filled in.
Compound | Metric | Value reported
CCCCC1CSCCC(N)=N1 (centres undefined) | pIC50 | 6.30
NC1=NCCSCC1 | pIC50 | 5.85
NC1=NCCOCC1 | pIC50 | 4.93

In one line, give reported pIC50 of the entry CCC1CSCCC(N)=N1 (centres undefined) . 6.51

====

Reported pIC50 values for a set of compounds
# Test target: Nitric oxide synthase 1 (Homo sapiens)
# Sequence (P29475 whole entry): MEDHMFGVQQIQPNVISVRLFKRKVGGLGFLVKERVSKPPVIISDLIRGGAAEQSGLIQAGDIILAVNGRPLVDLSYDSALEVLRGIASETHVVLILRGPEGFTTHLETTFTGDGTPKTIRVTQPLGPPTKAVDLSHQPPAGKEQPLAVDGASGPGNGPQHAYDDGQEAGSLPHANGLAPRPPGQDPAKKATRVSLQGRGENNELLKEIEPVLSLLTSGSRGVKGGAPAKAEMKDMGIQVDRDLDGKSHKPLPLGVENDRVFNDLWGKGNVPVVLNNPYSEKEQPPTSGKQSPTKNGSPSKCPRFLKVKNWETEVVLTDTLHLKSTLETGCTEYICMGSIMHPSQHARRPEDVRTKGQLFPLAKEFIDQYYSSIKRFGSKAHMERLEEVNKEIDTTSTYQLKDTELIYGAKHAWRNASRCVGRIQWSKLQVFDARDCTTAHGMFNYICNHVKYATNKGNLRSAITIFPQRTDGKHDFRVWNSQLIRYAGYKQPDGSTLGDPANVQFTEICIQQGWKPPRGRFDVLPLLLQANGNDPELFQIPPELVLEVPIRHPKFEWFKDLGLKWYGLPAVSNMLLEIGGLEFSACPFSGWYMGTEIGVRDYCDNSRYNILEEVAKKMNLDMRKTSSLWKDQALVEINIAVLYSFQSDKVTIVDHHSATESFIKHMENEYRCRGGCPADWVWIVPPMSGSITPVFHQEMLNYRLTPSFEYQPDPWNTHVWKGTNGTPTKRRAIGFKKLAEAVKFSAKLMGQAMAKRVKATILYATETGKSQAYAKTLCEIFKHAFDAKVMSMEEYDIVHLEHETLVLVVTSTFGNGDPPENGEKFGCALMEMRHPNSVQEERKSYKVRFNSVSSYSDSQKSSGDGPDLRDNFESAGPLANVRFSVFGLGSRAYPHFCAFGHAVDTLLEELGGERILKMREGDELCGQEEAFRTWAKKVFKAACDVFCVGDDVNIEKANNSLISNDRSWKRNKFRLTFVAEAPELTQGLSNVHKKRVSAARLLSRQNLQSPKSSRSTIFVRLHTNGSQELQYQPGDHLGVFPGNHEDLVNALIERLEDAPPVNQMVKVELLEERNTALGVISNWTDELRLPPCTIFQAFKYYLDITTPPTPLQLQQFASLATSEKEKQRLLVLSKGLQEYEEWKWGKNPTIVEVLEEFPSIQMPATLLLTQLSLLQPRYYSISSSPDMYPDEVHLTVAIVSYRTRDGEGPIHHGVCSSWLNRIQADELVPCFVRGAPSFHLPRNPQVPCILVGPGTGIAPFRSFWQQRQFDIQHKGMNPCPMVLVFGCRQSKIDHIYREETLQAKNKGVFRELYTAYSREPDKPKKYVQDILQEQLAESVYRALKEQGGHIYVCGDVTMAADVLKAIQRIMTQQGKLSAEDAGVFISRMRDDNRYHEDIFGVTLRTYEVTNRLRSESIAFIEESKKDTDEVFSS
# Protocol text: Inhibitory concentration against Neuronal nitric oxide synthase
Recall that pIC50 is obtained by taking minus log10 of the concentration measured in molar.

Compound | Test target | pIC50
NC1=NCCOCC1 | Nitric oxide synthase 1 (Homo sapiens) | 5.06

Answer briefly: pIC50 recorded on Nitric oxide synthase 1 (Homo sapiens) for CC1CSCCC(N)=N1 (configuration not stated) 5.74

Report the value of pIC50 obtained on Nitric oxide synthase 1 (Homo sapiens) for CCCCC1CSCCC(N)=N1 (configuration not stated) . 5.92

Look up and report measured pIC50 (Nitric oxide synthase 1 (Homo sapiens)) for the following compound: NC1=NCCSCC1 5.37

Give pIC50; test system Nitric oxide synthase 1 (Homo sapiens); compound CCC1CSCCC(N)=N1 (configuration not stated) 6.23
